Tested on: PTPN2
Experiment: HiBiT-Degradation B16F10.4 PTPN2
Format: cell-based
Conditions: B16F10.4 cells, 24.0 hours
property.measured: DC50

See these solved cases before continuing.
Cn1c(=O)n(C2CCC(=O)NC2=O)c2ccc(C3CCN(CC(=O)N4CC(Oc5ccc6cc(O)c(N7CC(=O)NS7(=O)=O)c(F)c6c5)C4)CC3(F)F)cc21 (centres unmarked)
50 to 200 nM
Cn1c(=O)n(C2CCC(=O)NC2=O)c2ccc(C3CCN(CC(=O)N4CC=C(c5ccc6cc(O)c(N7CC(=O)NS7(=O)=O)c(F)c6c5)C4)CC3)cc21 (centres unmarked)
50 to 200 nM
O=C1CCC(Nc2ccc(C3CCN(CC(=O)Nc4ccc5c(F)c(N6CC(=O)NS6(=O)=O)c(O)cc5c4)CC3)cc2Oc2ccccc2)C(=O)N1 (centres unmarked)
≥ 1000 nM
Cn1nc(C2CCC(=O)NC2=O)c2ccc([C@H]3CC[C@H](CC(=O)Nc4ccc5c(F)c(N6CC(=O)NS6(=O)=O)c(O)cc5c4)CC3)cc21 (single isomer, unassigned)
200 to 1000 nM

Field DC50 (system: PTPN2) for entry Cn1c(=O)n(C2CCC(=O)NC2=O)c2ccc(N3CCC(CC(=O)N4CCC[C@@H](COc5ccc6cc(O)c(N7CC(=O)NS7(=O)=O)c(F)c6c5)C4)CC3)cc21 (some centres unmarked) = 200 to 1000 nM

Field DC50 (system: PTPN2) for entry Cn1c(=O)n(C2CCC(=O)NC2=O)c2ccc(Nc3ccc(CC(=O)Nc4ccc5c(F)c(N6CC(=O)NS6(=O)=O)c(O)cc5c4)cc3)cc21 (centres unmarked) = 10 to 50 nM

Field DC50 (system: PTPN2) for entry O=C1CCC(Nc2ccc(C3CCN(CC(=O)Nc4ccc5c(F)c(N6CC(=O)NS6(=O)=O)c(O)cc5c4)CC3)c(F)c2)C(=O)N1 (centres unmarked) = ≥ 1000 nM

Field DC50 (system: PTPN2) for entry O=C(CN1CCC(c2ccc3c4c(cccc24)C(=O)N3C2CCC(=O)NC2=O)CC1)NCCOc1ccc2cc(O)c(N3CC(=O)NS3(=O)=O)c(F)c2c1 (centres unmarked) = 10 to 50 nM

Field DC50 (system: PTPN2) for entry CC(Nc1cccc2c1C(=O)N(C1CCC(=O)NC1=O)C2=O)c1cn(CCC(=O)Nc2ccc3c(F)c(N4CC(=O)NS4(=O)=O)c(O)cc3c2)nn1 (centres unmarked) = ≥ 1000 nM

Field DC50 (system: PTPN2) for entry CN(c1ccc(C2CCN(CC(=O)NCCOc3ccc4cc(O)c(N5CC(=O)NS5(=O)=O)c(F)c4c3)CC2)cc1)C1CCC(=O)NC1=O (centres unmarked) = 200 to 1000 nM

Field DC50 (system: PTPN2) for entry Cn1c(=O)n(C2CCC(=O)NC2=O)c2ccc(C3CCN(CCCCCOc4ccc5cc(O)c(N6CC(=O)NS6(=O)=O)c(F)c5c4)CC3)cc21 (centres unmarked) = 50 to 200 nM

----------
Test system: PTPN2
Test: HiBiT-Degradation B16F10.4 PTPN2
Format: cell-based
Conditions: B16F10.4 cells, 24.0 hours
property.measured: DC50

See these solved cases before continuing.
O=C1CCC(N2C(=O)c3cccc(NCC(=O)N4CCC(C(=O)NCCOc5ccc6cc(O)c(N7CC(=O)NS7(=O)=O)c(F)c6c5)CC4)c3C2=O)C(=O)N1 (stereo not drawn) [Example 1]
≥ 1000 nM
Cn1c(=O)n(C2CCC(=O)NC2=O)c2ccc(C3CCN(CC(=O)N4CC(c5ccc6c(F)c(N7CC(=O)NS7(=O)=O)c(O)cc6c5)C4)CC3)cc21 (stereo not drawn) [Example 115]
200 to 1000 nM
Cn1c(=O)n(C2CCC(=O)NC2=O)c2ccc(Nc3ccc(CC(=O)Nc4ccc5c(F)c(N6CC(=O)NS6(=O)=O)c(O)cc5c4)cn3)cc21 (stereo not drawn) [Example 168]
10 to 50 nM
O=C1CCC(N2Cc3c(NCc4cn(C5CN(C(=O)Nc6ccc7c(F)c(N8CC(=O)NS8(=O)=O)c(O)cc7c6)C5)nn4)cccc3C2=O)C(=O)N1 (stereo not drawn) [Example 57]
≥ 1000 nM
Cn1c(=O)n(C2CCC(=O)NC2=O)c2ccc(C3CCN(C(=O)Cn4cc(-c5ccc6c(F)c(N7CC(=O)NS7(=O)=O)c(O)cc6c5)cn4)CC3(F)F)cc21 (stereo not drawn) [Example 73]
10 to 50 nM

Field: next compound
The value of DC50 measured for the compound O=C1CCC(N2C(=O)c3cccc(NCc4cn(C5CCN(CC(=O)Nc6ccc7c(F)c(N8CC(=O)NS8(=O)=O)c(O)cc7c6)CC5)nn4)c3C2=O)C(=O)N1 (stereo not drawn) [Example 67] turned out to be ≥ 1000 nM
